# Species: Mus musculus
# protocol.details: Uptake Ratio of Tumor/muscle (each in % ID/g) in B16/F1 Murine Melanoma-Bearing C57 Mice at 24 h
# Format: functional, organism-based
# measurement.parameters: Muscle tissue
endpoint.name: Uptake ratio
Lab note: write the figure by itself, no unit.

- substance: "DOTA-ReCCEHdFRWCRPV-NH2"
  endpoint.name: "Uptake ratio"
  measured: 42.2

QUERY: Specify reported Uptake ratio for the substance shown: `DOTA-ReCCEHdFRWCKPV-NH2`
RESULT: 173

QUERY: Specify reported Uptake ratio for the substance shown: `DOTA-ReCCEHdFRWCKPVD-OH`
RESULT: 27.3

QUERY: Specify reported Uptake ratio for the substance shown: `DOTA-ReCCEHdFRWCKPV-OH`
RESULT: 26.8

QUERY: Specify reported Uptake ratio for the substance shown: `Ac-Lys(DOTA)-ReCCEHdFRWCKPV-NH2`
RESULT: 13.3

---

# Species on record: Mus musculus
# protocol.details: Radioactivity uptake in the kidneys was expressed as a percentage of the injected radioactive dose per gram of tissue (% ID/g) in B16/F1 Murine Melanoma-Bearing C57 Mice at 2 h
# Type: functional, organism-based
# measurement.parameters: Kidney
# ID/g per record follows
Please give a number only; it is taken to be in %.

QUERY: Specify reported ID/g for the substance shown: `DOTA-ReCCEHdFRWCKPV-OH`
RESULT: 8.8

QUERY: Specify reported ID/g for the substance shown: `Ac-Lys(DOTA)-ReCCEHdFRWCKPV-NH2`
RESULT: 18.4

QUERY: Specify reported ID/g for the substance shown: `DOTA-ReCCEHdFRWCRPV-NH2`
RESULT: 8.72

QUERY: Specify reported ID/g for the substance shown: `DOTA-ReCCEHdFRWCKPV-NH2`
RESULT: 8.98

QUERY: Specify reported ID/g for the substance shown: `DOTA-ReCCEHdFRWCKPVD-OH`
RESULT: 8.07

---

# Species: Mus musculus
# protocol.details: Radioactivity uptake in the muscle was expressed as a percentage of the injected radioactive dose per gram of tissue (% ID/g) in B16/F1 Murine Melanoma-Bearing C57 Mice at 2 h
# Type: functional, organism-based
endpoint.name: ID/g (%)
Please give a number only; it is taken to be in %.

- substance: "Ac-Lys(DOTA)-ReCCEHdFRWCKPV-NH2"
  ID/g [%]: 0.02
- substance: "DOTA-ReCCEHdFRWCRPV-NH2"
  ID/g [%]: 0.03
- substance: "DOTA-ReCCEHdFRWCKPVD-OH"
  ID/g [%]: 0.13
- substance: "DOTA-ReCCEHdFRWCKPV-NH2"
  ID/g [%]: 0.047

Now, please, on to the next substance.
QUERY: Specify reported ID/g for the substance shown: `DOTA-ReCCEHdFRWCKPV-OH`
RESULT: 0.054

---

# ID/g per record follows
# Organism: Mus musculus
# protocol.details: Radioactivity uptake in the tumor was expressed as a percentage of the injected radioactive dose per gram of tissue (% ID/g) in B16/F1 Murine Melanoma-Bearing C57 Mice at 0.5 h
# Type: functional, organism-based
Remember to quote the unit after the number.

QUERY: Specify reported ID/g for the substance shown: `DOTA-ReCCEHdFRWCKPV-OH`
RESULT: 10.4%

QUERY: Specify reported ID/g for the substance shown: `DOTA-ReCCEHdFRWCKPV-NH2`
RESULT: 10.4%

QUERY: Specify reported ID/g for the substance shown: `Ac-Lys(DOTA)-ReCCEHdFRWCKPV-NH2`
RESULT: 7.15%

QUERY: Specify reported ID/g for the substance shown: `DOTA-ReCCEHdFRWCRPV-NH2`
RESULT: 16.6%

QUERY: Specify reported ID/g for the substance shown: `DOTA-ReCCEHdFRWCKPVD-OH`
RESULT: 8.96%
